Assay system: T1, human angiopoietin-2 protein (human, UniProt O15123 19-496)
T1 construct: also called Ang-2; Ang2
T1 sequence (looked up): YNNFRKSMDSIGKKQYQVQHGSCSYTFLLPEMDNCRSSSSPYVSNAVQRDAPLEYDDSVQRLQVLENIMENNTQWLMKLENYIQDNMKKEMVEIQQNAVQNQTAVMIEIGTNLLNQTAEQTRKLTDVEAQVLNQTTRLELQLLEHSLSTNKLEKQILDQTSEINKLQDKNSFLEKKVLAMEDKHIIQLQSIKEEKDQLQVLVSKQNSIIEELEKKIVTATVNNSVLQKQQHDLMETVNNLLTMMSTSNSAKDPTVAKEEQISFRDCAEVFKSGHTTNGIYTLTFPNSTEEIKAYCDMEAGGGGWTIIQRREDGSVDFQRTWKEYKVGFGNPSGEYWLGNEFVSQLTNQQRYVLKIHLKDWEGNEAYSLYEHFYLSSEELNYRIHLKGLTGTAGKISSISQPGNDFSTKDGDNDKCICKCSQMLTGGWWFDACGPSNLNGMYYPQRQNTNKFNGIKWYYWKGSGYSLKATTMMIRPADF
Assay protocol: competitive ELISA: Tie-2-Fc binding to coated Ang-2; T
Where no end group is shown, it is not given here.
Provide the reported pIC50 of each item.
# reply with the number alone; pIC50 is -log10 of concentration in mol/L

binder QXYQPLDEKDXTLYDQFMLQQG (N-terminal acyl cap; C-terminal amino cap; Kac 2; 0P linker on K9; Kac 11, also called 4030 T) [Compound 4030, peptide plus linker (T)] , pIC50 observed: 6.55

binder QKYQPLDELDKTLYDQFMLQQG-NH2 (not fully specified (N-terminus), also called 4026 T) [Compound 4026, peptide plus linker (T)] , pIC50 observed: 7.49

binder QXYQPLDELDKTIYDQFMLQQG (N-terminal acyl cap; C-terminal amino cap; Kac 2; 0P linker on K11, also called 4036 T) [Compound 4036, peptide plus linker (T)] , pIC50 observed: 5.62
